test system: Staphylococcus aureus; test: Antibacterial activity against Staphylococcus aureus ATCC 25923 assessed as decrease in bacterial growth incubated for 18 hrs by broth microdilution method; format: functional
QUANTITY_NAME: MIC (µM)
Numeric answer only, unit µM assumed.

COMPOUND	QUANTITY_NAME	UNIT_ABBREVIATION	RECORDED_VALUE
COc1ccc2cc3[n+](cc2c1OCC(O)CN1CCOCC1)CCc1cc2c(cc1-3)OCO2.[Br-] (stereo unspecified)	MIC	µM	469

Value of measured MIC for the entry COc1ccc2cc3[n+](cc2c1OCC(O)Cn1cnc2cc(Br)ccc21)CCc1cc2c(cc1-3)OCO2.[Br-] (stereo unspecified) : 98

Value of measured MIC for the entry COc1ccc2cc3[n+](cc2c1OCC(O)CN(CCO)CCO)CCc1cc2c(cc1-3)OCO2.[Br-] (stereo unspecified) : 227

Value of measured MIC for the entry COc1ccc2cc3[n+](cc2c1OCC(O)CN1CCNCC1)CCc1cc2c(cc1-3)OCO2.[Br-] (stereo unspecified) : 235

Value of measured MIC for the entry COc1ccc2cc3[n+](cc2c1OCC(O)CSc1nccn1C)CCc1cc2c(cc1-3)OCO2.[Br-] (stereo unspecified) : 56

Value of measured MIC for the entry COc1ccc2cc3[n+](cc2c1OCC(O)CSc1nc2ccccc2[nH]1)CCc1cc2c(cc1-3)OCO2.[Br-] (stereo unspecified) : 53

Value of measured MIC for the entry COc1ccc2cc3[n+](cc2c1OCC(O)Cn1ccnc1-c1ccccc1)CCc1cc2c(cc1-3)OCO2.[Br-] (stereo unspecified) : 53

Value of measured MIC for the entry COc1ccc2cc3[n+](cc2c1OCC(O)Cn1cnc2cc([N+](=O)[O-])ccc21)CCc1cc2c(cc1-3)OCO2.[Br-] (stereo unspecified) : 26

Value of measured MIC for the entry COc1ccc2cc3[n+](cc2c1OCC(O)CSc1nnnn1C)CCc1cc2c(cc1-3)OCO2.[Br-] (stereo unspecified) : 56

Value of measured MIC for the entry CCN(CC)CC(O)COc1c(OC)ccc2cc3[n+](cc12)CCc1cc2c(cc1-3)OCO2.[Br-] (stereo unspecified) : 120

Value of measured MIC for the entry COc1ccc2cc3[n+](cc2c1OCC(O)Cn1c([N+](=O)[O-])cnc1C)CCc1cc2c(cc1-3)OCO2.[Br-] (stereo unspecified) : 55

Value of measured MIC for the entry COc1ccc2cc3[n+](cc2c1OC)CCc1cc2c(cc1-3)OCO2 : 344

Value of measured MIC for the entry COc1ccc2cc3[n+](cc2c1OCC(O)Cn1cc(C=O)c2ccccc21)CCc1cc2c(cc1-3)OCO2.[Br-] (stereo unspecified) : 53

Value of measured MIC for the entry COc1ccc2cc3[n+](cc2c1OCC(O)Cn1cnc2ccccc21)CCc1cc2c(cc1-3)OCO2.[Br-] (stereo unspecified) : 56

Value of measured MIC for the entry COc1ccc2cc3[n+](cc2c1OCC(O)CSc1nc[nH]n1)CCc1cc2c(cc1-3)OCO2.[Br-] (stereo unspecified) : 114

Value of measured MIC for the entry COc1ccc2cc3[n+](cc2c1OCC(O)Cn1ccnc1)CCc1cc2c(cc1-3)OCO2.[Br-] (stereo unspecified) : 124

Value of measured MIC for the entry COc1ccc2cc3[n+](cc2c1OCC(O)Cn1nnnc1C)CCc1cc2c(cc1-3)OCO2.[Br-] (stereo unspecified) : 61

Value of measured MIC for the entry COc1ccc2cc3[n+](cc2c1OCC(O)CSc1nc2ccccc2s1)CCc1cc2c(cc1-3)OCO2.[Br-] (stereo unspecified) : 13

Value of measured MIC for the entry COc1ccc2cc3[n+](cc2c1OCC(O)Cn1cnc([N+](=O)[O-])c1)CCc1cc2c(cc1-3)OCO2.[Br-] (stereo unspecified) : 112

----------
// reported MIC for each item listed
system: Staphylococcus aureus; test: Antibacterial activity against Staphylococcus aureus ATCC 25923 assessed as decrease in bacterial growth incubated for 18 hrs by broth microdilution method; format: functional
Write down the value, and be sure its unit follows.

These solved cases illustrate the format of a correct answer.
COMPOUND	ASSAY_SYSTEM	RECORDED_VALUE
COc1ccc2cc3[n+](cc2c1OCC(O)Cn1nnc2ccccc21)CCc1cc2c(cc1-3)OCO2.[Br-] (configuration not stated)	Staphylococcus aureus	55 µM
COc1ccc2cc3[n+](cc2c1OCC(O)Cn1cnnc1)CCc1cc2c(cc1-3)OCO2.[Br-] (configuration not stated)	Staphylococcus aureus	243 µM
COc1ccc2cc3[n+](cc2c1OCC(O)CSc1nnc(C)s1)CCc1cc2c(cc1-3)OCO2.[Br-] (configuration not stated)	Staphylococcus aureus	108 µM
COc1ccc2cc3[n+](cc2c1OCC(O)CN1CCCCC1)CCc1cc2c(cc1-3)OCO2.[Br-] (configuration not stated)	Staphylococcus aureus	236 µM
COc1ccc2cc3[n+](cc2c1OCC(O)CN1CCCC1)CCc1cc2c(cc1-3)OCO2.[Br-] (configuration not stated)	Staphylococcus aureus	121 µM
CCn1cc(C(=O)O)c(=O)c2cc(F)c(N3CCNCC3)cc21	Staphylococcus aureus	13 µM

Field: next compound
Value of measured MIC for the entry CCN(CCO)CC(O)COc1c(OC)ccc2cc3[n+](cc12)CCc1cc2c(cc1-3)OCO2.[Br-] (configuration not stated) : 468 µM
